Numbers sourced from patent US20230105029A1.

# system under test: T1, recombinant human IL4Rα-his protein (in house made) (human, UniProt P24394 26-232, limits assumed)
# T1 construct: also called Human IL4Ra-his
# assay remarks: SPR (Biacore), antibody captured, IL4Rα-his flowed
Hi there, I'd appreciate the recorded Start (RU) for every entry that follows.

// solved cases for Start (RU) follow
{"binder": "huC2C1A1A1-V14 (antibody, human IgG4 S228P, kappa, V domains shown, Humanized, human IgG4/kappa) VH: EVQLVESGGGLVQPGGSLRLSCAASGFTFSTYGMSWVRQAPGKGLVWVATINSNGGSTSYPDSVKGRFTISRDNAKNTLYLQMNSLRAEDTAVYYCARFFRFRNAMDYWGQGTLVTVSS VL: DIQMTQSPSSLSASVGQRVTITCRTSENIYSYLAWYQQKQGKPPRFLIYNAKTLAEGVPSRFSGSGSGTEFTLTITSLQAEDFGVYYCQHYYGPPTWTFGPGTKLEIKR", "result": "50.1 RU"}
{"binder": "huC2C1A1A1-V13 (antibody, human IgG4 S228P, kappa, V domains shown, Humanized, human IgG4/kappa) VH: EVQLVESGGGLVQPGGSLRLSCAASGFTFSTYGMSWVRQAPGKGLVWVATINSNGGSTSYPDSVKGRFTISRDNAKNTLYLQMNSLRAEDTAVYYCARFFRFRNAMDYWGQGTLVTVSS VL: DIQMTQSPSSLSASVGDRVTITCRTSENIYSYLAWYQQKPGKAPKLLIYNAKTLAEGVPSRFSGSGSGTDFTLTISSLQPEDFATYYCQHYYGPPTWTFGQGTKVEIKR", "result": "36.4 RU"}
{"binder": "huC2C1A1A1-V7 (antibody, human IgG4, V domains shown, Humanized, human IgG4/kappa) VH: EVQLVESGGGLVQPGGSLRLSCAASGFTFSTYGMSWVRQSPDKRLEWVSTINSNGGSTSYPDSVKGRFTISRDNAKNTLYLQMRSLRAEDTAVYYCARFFRFRNAMDYWGQGTLVTVSS VL: DIQMTQSPSSLSASVGDRVTITCRTSENIYSYLAWYQQKPGKAPKFLVYNAKTLAEGVPSRFSGSGSGTDFTLTISSLQPEDFATYYCQHYYGPPTWTFGQGTKVEIKR", "result": "60.5 RU"}
{"binder": "huC2C1A1A1-V1 (antibody, human IgG4 S228P, kappa, V domains shown, Humanized, human IgG4/kappa) VH: EVQLVESGGGLVQPGGSLRLSCAASGFTFSTYGMSWVRQAPGKGLVWVSTINSNGGSTSYPDSVKGRFTISRDNAKNTLYLQMNSLRAEDTAVYYCARFFRFRNAMDYWGQGTLVTVSS VL: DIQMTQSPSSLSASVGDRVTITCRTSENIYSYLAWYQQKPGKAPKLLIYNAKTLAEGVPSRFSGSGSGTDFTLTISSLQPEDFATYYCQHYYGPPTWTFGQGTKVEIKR", "result": "43.9 RU"}

Provide Start (RU) for all items below, preserving their order.
1. huC2C1A1A1-V16 (antibody, human IgG4 S228P, kappa, V domains shown, Humanized, human IgG4/kappa) VH: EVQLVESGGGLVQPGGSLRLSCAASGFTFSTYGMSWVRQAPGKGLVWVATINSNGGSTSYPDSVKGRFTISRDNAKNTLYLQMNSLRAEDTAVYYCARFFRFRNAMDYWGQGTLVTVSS VL: DIQMTQSPSSLSASVGDRVTITCRTSENIYSYLAWYQQKPGKAPKFLIYNAKTLAEGVPSRFSGSGSGTDFTLTISSLQPEDFATYYCQHYYGPPTWTFGQGTKVEIKR
2. huC2C1A1A1-V3 (antibody, human IgG4, V domains shown, Humanized, human IgG4/kappa) VH: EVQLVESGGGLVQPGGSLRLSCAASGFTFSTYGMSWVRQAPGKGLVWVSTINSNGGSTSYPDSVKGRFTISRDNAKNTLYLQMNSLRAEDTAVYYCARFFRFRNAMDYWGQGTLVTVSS VL: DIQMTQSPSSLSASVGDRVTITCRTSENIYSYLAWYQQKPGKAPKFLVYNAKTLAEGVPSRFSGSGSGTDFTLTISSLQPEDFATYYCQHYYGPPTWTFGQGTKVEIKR
3. huC2C1A1A1-V6 (antibody, human IgG4 S228P, kappa, V domains shown, Humanized, human IgG4/kappa) VH: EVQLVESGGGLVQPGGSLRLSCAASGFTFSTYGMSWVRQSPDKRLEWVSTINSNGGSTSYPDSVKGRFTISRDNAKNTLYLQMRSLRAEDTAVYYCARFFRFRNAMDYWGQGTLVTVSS VL: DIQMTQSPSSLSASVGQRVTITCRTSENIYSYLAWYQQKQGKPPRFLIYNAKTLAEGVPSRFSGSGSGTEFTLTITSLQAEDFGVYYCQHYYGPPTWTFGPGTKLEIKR
4. huC2C1A1A1-V12 (antibody, human IgG4 S228P, kappa, V domains shown, Humanized, human IgG4/kappa) VH: EVQLVESGGGLVQPGGSLRLSCAASGFTFSTYGMSWVRQAPGKGLVLVATINSNGGSTSYPDSVKGRFTISRDNAKNTLYLQMNSLRAEDTAVYYCARFFRFRNAMDYWGQGTLVTVSS VL: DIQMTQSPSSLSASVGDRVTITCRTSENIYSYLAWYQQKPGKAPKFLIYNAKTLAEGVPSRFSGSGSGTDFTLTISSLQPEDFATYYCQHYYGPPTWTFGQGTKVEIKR
5. huC2C1A1A1-V9 (antibody, human IgG4 S228P, kappa, V domains shown, Humanized, human IgG4/kappa) VH: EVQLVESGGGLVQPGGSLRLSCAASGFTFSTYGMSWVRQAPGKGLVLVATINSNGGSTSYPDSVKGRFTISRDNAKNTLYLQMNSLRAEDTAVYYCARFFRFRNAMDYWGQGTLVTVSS VL: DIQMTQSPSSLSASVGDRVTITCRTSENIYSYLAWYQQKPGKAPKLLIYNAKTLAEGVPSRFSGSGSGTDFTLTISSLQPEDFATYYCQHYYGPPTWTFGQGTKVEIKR
6. huC2C1A1A1-V5 (antibody, human IgG4 S228P, kappa, V domains shown, Humanized, human IgG4/kappa) VH: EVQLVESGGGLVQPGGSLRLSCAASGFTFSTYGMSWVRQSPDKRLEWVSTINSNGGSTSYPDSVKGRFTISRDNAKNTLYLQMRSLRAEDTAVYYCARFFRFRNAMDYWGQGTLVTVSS VL: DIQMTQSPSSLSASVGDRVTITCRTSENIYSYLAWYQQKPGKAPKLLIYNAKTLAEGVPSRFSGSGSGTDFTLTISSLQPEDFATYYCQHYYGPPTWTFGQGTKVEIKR

Output:
1. 47.3 RU
2. 48.6 RU
3. 50.9 RU
4. 53.1 RU
5. 41.2 RU
6. 65.8 RU

Measured Start (RU), huC2C1A1A1-V10 (antibody, human IgG4 S228P, kappa, V domains shown, Humanized, human IgG4/kappa) VH: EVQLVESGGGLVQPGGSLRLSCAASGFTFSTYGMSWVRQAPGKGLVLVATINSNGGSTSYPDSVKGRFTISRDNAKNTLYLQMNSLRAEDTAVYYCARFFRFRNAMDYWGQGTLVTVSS VL: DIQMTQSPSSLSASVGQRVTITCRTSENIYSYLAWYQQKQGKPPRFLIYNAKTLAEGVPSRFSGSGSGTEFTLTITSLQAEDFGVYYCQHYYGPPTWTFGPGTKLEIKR : 64.9 RU
